The reported measurements were obtained from patent EP4559922A1.

# Tested on: isolated ileal smooth muscle of guinea pigs
# ASSAY REMARKS: Effect on muscle tone of isolated ileal smooth muscle of guinea pigs (no histamine added)
# MEASUREMENT CONDITIONS: relative to tone before adding compound, X±s, n = 8, 5 min, 5 min
EXPERIMENTAL ENDPOINT: Antispasmodic percentage (%)
Report only the number, with the unit % understood.

COMPOUND: O=C1Cc2ccccc2C(=C2CCN(CCCCCOP(=O)(O)O)CC2)c2ccsc21 [Compound IV-5]
Antispasmodic percentage, %: 33.72
//
COMPOUND: O=C1Cc2ccccc2C(=C2CCN(CCCCCOP(=O)(O)O)CC2)c2ccsc21 [Compound III-5]
Antispasmodic percentage, %: 33.53
//
COMPOUND: O=C1Cc2ccccc2C(=C2CCN(CCCOCOP(=O)(O)O)CC2)c2ccsc21 [Compound III-7]
Antispasmodic percentage, %: 30.23

Provide one value: measured Antispasmodic percentage of O=C1Cc2ccccc2C(=C2CCN(CCCCOP(=O)(O)O)CC2)c2ccsc21 [Compound IV-4]
30.59

Provide one value: measured Antispasmodic percentage of O=C1Cc2ccccc2C(=C2CCN(CCCOP(=O)(O)O)CC2)c2ccsc21 [Compound IV-3]
30.95

Provide one value: measured Antispasmodic percentage of O=C1Cc2ccccc2C(=C2CCN(CCCOCOP(=O)(O)O)CC2)c2ccsc21 [Compound IV-7]
33.52

Provide one value: measured Antispasmodic percentage of O=C1Cc2ccccc2C(=C2CCN(COP(=O)(O)O)CC2)c2ccsc21 [Compound III-1]
30.59

Provide one value: measured Antispasmodic percentage of O=C1Cc2ccccc2C(=C2CCN(CCCCCOCOP(=O)(O)O)CC2)c2ccsc21 [Compound IV-9]
32.95

###

# ASSAY REMARKS: Accelerated stability test
# Assay type: physicochemical
# MEASUREMENT CONDITIONS: Month 2; 40°C ± 2°C, relative humidity 75% ± 5%
EXPERIMENTAL ENDPOINT: Related substances (%)
Report only the number, with the unit % understood.

COMPOUND: O=C1Cc2ccccc2C(=C2CCN(CCOCOP(=O)(O)O)CC2)c2ccsc21
OBSERVED VALUE: 0.09
--
COMPOUND: O=C1Cc2ccccc2C(=C2CCN(CCOP(=O)(O)O)CC2)c2ccsc21
OBSERVED VALUE: 0.04
--
COMPOUND: O=C1Cc2ccccc2C(=C2CCN(CCCCOP(=O)(O)O)CC2)c2ccsc21
OBSERVED VALUE: 0.09

Next, consider the following compound.
Provide one value: measured Related substances of O=C1Cc2ccccc2C(=C2CCN(CCCOP(=O)(O)O)CC2)c2ccsc21 [Compound IV-3]
0.09

###

# Tested on: isolated ileal smooth muscle of guinea pigs
# ASSAY REMARKS: Effect on muscle tone of isolated ileal smooth muscle of guinea pigs (no histamine added)
# MEASUREMENT CONDITIONS: relative to tone before adding compound, X±s, n = 8, 5 min, 5 min
Antispasmodic percentage values for the molecules below.
Report only the number, with the unit % understood.

Record excerpt, results attached:
MOLECULE: O=C1Cc2ccccc2C(=C2CCN(CCCCOCOP(=O)(O)O)CC2)c2ccsc21 [Compound III-8]
MEASURED TARGET: isolated ileal smooth muscle of guinea pigs
OBSERVED VALUE: 31.76
--
MOLECULE: O=C1Cc2ccccc2C(=C2CCN(COP(=O)(O)O)CC2)c2ccsc21 [Compound IV-1]
MEASURED TARGET: isolated ileal smooth muscle of guinea pigs
OBSERVED VALUE: 33.72
--
MOLECULE: O=C1Cc2ccccc2C(=C2CCN(CCCCOCOP(=O)(O)O)CC2)c2ccsc21 [Compound IV-8]
MEASURED TARGET: isolated ileal smooth muscle of guinea pigs
OBSERVED VALUE: 32.94

Next, consider the following molecule.
Provide one value: measured Antispasmodic percentage of O=C1Cc2ccccc2C(=C2CCN(CCCOP(=O)(O)O)CC2)c2ccsc21 [Compound III-3]
30.23
